system: α-isomaltosylglucosaccharide-forming enzyme; experiment: Transfer-acceptor specificity, Enzyme of Strain C9; format: biochemical, Bacillus globisporus C9; parameters: key: −: no saccharide-transferred product was detected through transfer reaction to acceptor; ∀: a saccharide-transferred product was detected in an amount less than one percent through transfer reaction to acceptor; +: a saccharide-transferred product was detected in an amount over one percent but less than ten percent through transfer reaction to acceptor; ++: a saccharide-transferred product was detected in an amount over ten percent through transfer reaction to acceptor; settings: acceptor 1.6%, PINE-DEX #100 donor 4%, one unit/g donor, 30° C., pH 6.0, 24 hours
reported.endpoint: Product of transferring reaction, Enzyme of Strain C9

1. OC[C@H]1O[C@@H]2O[C@H]3[C@H](O)[C@@H](O)[C@@H](O[C@H]4[C@H](O)[C@@H](O)[C@@H](O[C@H]5[C@H](O)[C@@H](O)[C@@H](O[C@H]6[C@H](O)[C@@H](O)[C@@H](O[C@H]7[C@H](O)[C@@H](O)[C@@H](O[C@H]8[C@H](O)[C@@H](O)[C@@H](O[C@H]1[C@H](O)[C@H]2O)O[C@@H]8CO)O[C@@H]7CO)O[C@@H]6CO)O[C@@H]5CO)O[C@@H]4CO)O[C@@H]3CO | −
2. OC[C@@H](O)[C@@H](O)[C@H](O)[C@@H](O)CO | −

###

tested on: α-isomaltosylglucosaccharide-forming enzyme; test: Action on saccharides (substrates), Enzyme of Strain A19; format: biochemical, Arthrobacter globiformis A19; set-up: key: −: it showed no change; +: it showed a slight reduction of the color spot of the substrate and the formation of other reaction product; ++: it showed a high reduction of the color spot of the substrate and the formation of other reaction product; +++: it showed a substantial disappearance of the substrate spot and the formation of other reaction product; details: two units/g substrate, substrate 2% (w/v), 30° C., pH 8.4, 24 hours, TLC
reported.endpoint: Enzymatic action, Enzyme of Strain A19

1. OC[C@H]1O[C@H](O[C@H]2O[C@H](CO)[C@@H](O[C@H]3O[C@H](CO)[C@@H](O)[C@H](O)[C@H]3O)[C@H](O)[C@H]2O)[C@H](O)[C@@H](O)[C@@H]1O [Maltosyl glucoside] | ++
2. OC[C@H]1O[C@H](OC[C@H]2O[C@H](O[C@H]3[C@H](O)[C@@H](O)C(O)O[C@@H]3CO)[C@H](O)[C@@H](O)[C@@H]2O)[C@H](O)[C@@H](O)[C@@H]1O (stereo partly drawn) [Panose] | −
3. OC[C@H]1O[C@H](OC[C@H]2OC(O)[C@H](O)[C@@H](O)[C@@H]2O)[C@H](O)[C@@H](O)[C@@H]1O (stereo partly drawn) [Isomaltose] | −
4. OC[C@H]1O[C@@](CO)(O[C@H]2O[C@H](CO)[C@@H](O)[C@H](O)[C@H]2O)[C@@H](O)[C@@H]1O [Sucrose] | −
5. OC[C@H]1O[C@H](O[C@H]2O[C@H](CO)[C@@H](O)[C@H](O)[C@H]2O)[C@H](O)[C@@H](O)[C@@H]1O [Trehalose] | −
6. OC[C@H]1O[C@@H](OC[C@H]2OC(O)[C@H](O)[C@@H](O)[C@@H]2O)[C@H](O)[C@@H](O)[C@@H]1O (stereo partly drawn) [Gentibiose] | −

###

test system: α-isomaltosylglucosaccharide-forming enzyme; experiment: Action on saccharides (substrates), Enzyme of Strain C11; format: biochemical, Bacillus globisporus C11; parameters: key: −: it showed no change; +: it showed a slight reduction of the color spot of the substrate and the formation of other reaction product; ++: it showed a high reduction of the color spot of the substrate and the formation of other reaction product; +++: it showed a substantial disappearance of the substrate spot and the formation of other reaction product; settings: two units/g substrate, substrate 2% (w/v), 30° C., pH 6.0, 24 hours, TLC
reported.endpoint: Enzymatic action, Enzyme of Strain C11

1. OC[C@H]1O[C@H](O[C@H]2O[C@H](CO)[C@@H](O)[C@H](O)[C@H]2O)[C@H](O)[C@@H](O)[C@@H]1O [Trehalose] | −
2. OC[C@H]1O[C@H](O[C@H]2[C@H](O)[C@@H](O)[C@H](O)O[C@@H]2CO)[C@H](O)[C@@H](O)[C@@H]1O [Maltose] | +
3. OC[C@H]1O[C@H](O[C@H]2C(O)O[C@H](CO)[C@@H](O)[C@@H]2O)[C@H](O)[C@@H](O)[C@@H]1O (stereo partly drawn) [Kojibiose] | +
4. OC[C@H]1O[C@@H](O[C@H]2O[C@H](CO)[C@@H](O)[C@H](O)[C@H]2O)[C@H](O)[C@@H](O)[C@@H]1O [Neotrehalose] | +
5. OC[C@@H](O)[C@@H](O[C@H]1O[C@H](CO)[C@@H](O[C@H]2O[C@H](CO)[C@@H](O)[C@H](O)[C@H]2O)[C@H](O)[C@H]1O)[C@H](O)[C@@H](O)CO [Maltotriitol] | +
6. OC[C@H]1O[C@H](OC[C@H]2O[C@H](OC[C@H]3OC(O)[C@H](O)[C@@H](O)[C@@H]3O)[C@H](O)[C@@H](O)[C@@H]2O)[C@H](O)[C@@H](O)[C@@H]1O (stereo partly drawn) [Isomaltotriose] | −

###

system: α-isomaltosylglucosaccharide-forming enzyme; assay: Influence of metal ions on the activity of α-isomaltosylglucosaccharide-forming enzyme (Strain N75); format: biochemical, Bacillus globisporus N75; conditions: 1 mM
reported.endpoint: influence on the enzyme activity, in words

1) [Ca+2] [Ca^2+] | activated
2) [Hg+2] [Hg^2+] | greatly inhibited
3) [Cu+2] [Cu^2+] | greatly inhibited
4) O=C(O)CN(CCN(CC(=O)O)CC(=O)O)CC(=O)O [EDTA, ethylenediaminetetraacetic acid, reference compound] | greatly inhibited
5) [Mn+2] [Mn^2+] | activated

###

system: α-isomaltosyl-transferring enzyme; test: Influence of metal ions on the activity of α-isomaltosyl-transferring enzyme (Strain S1); type: biochemical, Arthrobacter ramosus S1; conditions: 1 mM of each metal-ion
reported.endpoint: Relative activity (%)

1. [Ba+2] [Ba^2+] | 97
2. [Pb+2] [Pb^2+] | 85
3. [Hg+2] [Hg^2+] | 0.1
4. [Al+3] [Al^3+] | 93
5. O=C(O)CN(CCN(CC(=O)O)CC(=O)O)CC(=O)O [EDTA, ethylenediaminetetraacetic acid, reference compound] | 91
6. [Zn+2] [Zn^2+] | 78
7. [Sr+2] [Sr^2+] | 101
8. [Cu+2] [Cu^2+] | 2
9. [Co+2] [Co^2+] | 91
10. [Ca+2] [Ca^2+] | 103
11. [Ni+2] [Ni^2+] | 87

###

Recorded Relative activity (%) values for a group of compounds are listed next.
test system: α-isomaltosyl-transferring enzyme; test: Influence of metal ions on the activity of α-isomaltosyl-transferring enzyme (Strain N75); type: biochemical, Bacillus globisporus N75; settings: 1 mM of each metal-ion
reported.endpoint: Relative activity (%)

1. [Al+3] [Al^3+] | 94
2. [Ni+2] [Ni^2+] | 91
3. [Ba+2] [Ba^2+] | 102
4. [Ca+2] [Ca^2+] | 100

###

Tested on: α-isomaltosylglucosaccharide-forming enzyme
Assay: Influence of metal ions on the activity of α-isomaltosylglucosaccharide-forming enzyme (Strain N75)
Format: biochemical, Bacillus globisporus N75
Conditions: 1 mM of each metal-ion
Text: One unit activity of the α-isomaltosylglucosaccharide-forming enzyme is defined as the enzyme amount that forms one micromole of maltose per minute under the above enzymatic reaction conditions. Throughout the specification, the enzymatic activity of the α-isomaltosylglucosaccharide-forming enzyme means the unit(s) assayed as above. […]
reported.endpoint: Relative activity (%)

1. [Sr+2] | 85
2. [Ca+2] | 108
3. [Co+2] | 93
4. O=C(O)CN(CCN(CC(=O)O)CC(=O)O)CC(=O)O [EDTA, ethylenediaminetetraacetic acid, reference compound] | 35
5. [Mn+2] | 120
6. [Pb+2] | 86
7. [Ba+2] | 84
8. [Cu+2] | 7
9. [Fe+2] | 82
10. [Hg+2] | 1
11. [Zn+2] | 82

###

test system: α-isomaltosylglucosaccharide-forming enzyme; assay: Influence of metal ions on the activity of α-isomaltosylglucosaccharide-forming enzyme (Strain C11); type: biochemical, Bacillus globisporus C11; conditions: 1 mM of each metal-ion
reported.endpoint: Relative activity (%)

1) [Ba+2] | 65
2) [Hg+2] | 4
3) [Ca+2] | 109
4) [Zn+2] | 91
5) [Pb+2] | 101
6) [Mn+2] | 142
7) [Cu+2] | 23
8) O=C(O)CN(CCN(CC(=O)O)CC(=O)O)CC(=O)O [EDTA, ethylenediaminetetraacetic acid, reference compound] | 24
9) [Sr+2] | 83
10) [Co+2] | 96
